Target: enkephalinase (Mustela putorius furo)
Method description: Enkephalinase activity of tissue membrane fractions: cleavage of (3H-Tyr1,DAla2,Leu5)enkephalin, inhibition by inhibitors and substrates
Type: biochemical, ferret
Measurement context: Submucosa membrane fraction
Method: In this series of experiments, the tissue locations of enkephalinase were determined. Enkephalinase was purified from the ferret kidney to near homogeneity using published methods (Malfroy and Schwartz, Supra). Enkephalinase activity in membrane fractions derived from the vagus nerve, tracheal epithelium, submucosa, muscle, lungs, and kidneys of ferrets was determined. Ferrets were anesthetized, and the vagi, trachea, lungs, and kidneys removed. […]
Observable: pKi
Field pKi (float): negative decimal logarithm of the concentration in molar.

Lab book: pKi of CC(C)C[C@H](NC(=O)C(CS)Cc1ccccc1)C(=O)O (stereo partly shown) [leu-thiorphan, Leucine-thiorphan] noted as 8.55

---

Target: enkephalinase (Mustela putorius furo, UniProt M3XUG8)
Sequence (M3XUG8 2-749): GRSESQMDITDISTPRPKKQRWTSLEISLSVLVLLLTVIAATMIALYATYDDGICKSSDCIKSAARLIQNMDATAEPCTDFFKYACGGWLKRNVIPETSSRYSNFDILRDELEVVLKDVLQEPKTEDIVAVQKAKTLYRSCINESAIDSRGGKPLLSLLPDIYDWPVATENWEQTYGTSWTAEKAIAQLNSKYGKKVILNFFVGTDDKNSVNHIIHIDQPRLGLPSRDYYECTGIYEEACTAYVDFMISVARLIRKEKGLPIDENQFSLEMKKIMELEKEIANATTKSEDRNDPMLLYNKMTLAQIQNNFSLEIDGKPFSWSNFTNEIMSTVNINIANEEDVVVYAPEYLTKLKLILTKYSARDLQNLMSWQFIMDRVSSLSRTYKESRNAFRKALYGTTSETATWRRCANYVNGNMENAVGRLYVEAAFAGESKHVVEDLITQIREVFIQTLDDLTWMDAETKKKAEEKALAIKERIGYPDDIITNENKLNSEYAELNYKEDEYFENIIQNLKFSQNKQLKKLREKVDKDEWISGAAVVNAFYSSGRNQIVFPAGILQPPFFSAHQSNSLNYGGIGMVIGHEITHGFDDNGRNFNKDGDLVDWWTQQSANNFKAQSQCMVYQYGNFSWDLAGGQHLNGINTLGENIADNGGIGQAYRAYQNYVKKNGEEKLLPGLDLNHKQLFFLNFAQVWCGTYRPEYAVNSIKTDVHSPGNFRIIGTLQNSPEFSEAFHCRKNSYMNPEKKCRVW
Method description: Enkephalinase activity of tissue membrane fractions: cleavage of (3H-Tyr1,DAla2,Leu5)enkephalin, inhibition by inhibitors and substrates
Format: biochemical, ferret
Measurement context: Kidney
Observable: pKi
Value format note: pKi is -log10 of concentration (mol/L); just state the number.

Item CC(C)C[C@H](NC(=O)C(CS)Cc1ccccc1)C(=O)O (stereo partly shown) ; assay system enkephalinase (Mustela putorius furo, UniProt M3XUG8); pKi reported as 8.48

---

Target: UniProtKB M3XUG8
Method description: Enkephalinase activity of tissue membrane fractions: cleavage of (3H-Tyr1,DAla2,Leu5)enkephalin, inhibition by inhibitors and substrates
Assay type: biochemical, ferret
Measurement context: Epthelium membrane fraction
Observable: Ki (nM)
Provide only the numeric value, understood in nM.

Data point: CC(C)C[C@H](NC(=O)C(CS)Cc1ccccc1)C(=O)O (stereo partly shown) ; Ki = 8.7

---

Target: UniProt M3XUG8
Method description: Enkephalinase activity of tissue membrane fractions: cleavage of (3H-Tyr1,DAla2,Leu5)enkephalin, inhibition by inhibitors and substrates
Assay type: biochemical, ferret
Measurement context: Vagus/N. membrane fraction
Observable: Ki
Answer by giving the amount and then stating its unit.

Ki measured on CC(C)C[C@H](NC(=O)C(CS)Cc1ccccc1)C(=O)O (stereo partly shown) = 2.1 nM
